STUDY SYSTEM: clotted plasma proteins
PROTOCOL TEXT: binding to plasma clots; method not described, data not shown
Where no end group is shown, it is not given here. [ ]: non-standard residue; d: D form. NMeE = CN[C@@H](CCC(=O)O)C(=O)O
READOUT: Kd (µM)

BINDER	READOUT UNITS	MEASURED
CR[NMeE]KA [CR(NMe)EKA]	µM	2.5
CREKA [CREKA peptide (cys-arg-glu-lys-ala)]	µM	6
